B1: Pistol ribozyme (parent)
chain: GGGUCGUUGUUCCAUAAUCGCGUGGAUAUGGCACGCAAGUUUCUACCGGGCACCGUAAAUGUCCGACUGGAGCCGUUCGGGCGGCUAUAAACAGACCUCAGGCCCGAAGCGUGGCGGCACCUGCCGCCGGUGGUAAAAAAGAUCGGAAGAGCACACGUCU

variants of: B1; test: aptazyme ON/OFF ratio, guanine; higher = stronger switching; co-transcriptional cleavage with and without guanine
Recorded aptazyme ON/OFF ratio, one value per entry.
// response body must contain only the number

>>> resultvalue("U7G U8G U10G U11A C12A C13G")
1.31

Here's the next entry for you.
Data point: G9C U10C U11A C12G C13A ; aptazyme ON/OFF ratio = 1.19
